Tested on: C4-2 cells (high-STEAP2 expressing)
Test: Internalization and total binding on C4-2 cells (imaging, qualitative score)
Assay type: cell-based, human
Parameters: key: − (no internalization or binding); +(weak internalization or binding); ++(moderate internalization or binding); +++(robust internalization or binding)
Assay Context: 10 μg/ml antibody
Assay Metric: Internalization (37° C., 1 h) Qualitative Score

>>> test_value("H1H11162N: human-Fc anti-STEAP2 antibody, HCVR/LCVR SEQ ID NOs 250/258 (antibody, V domains shown, human Fc) VH: QVQLQQSGPGLVKPSQTLSLTCAISGDSVSSNRAAWNWIRQSPSRGLQWLGRTYYRSKWYNDYAVSLRSRITINPVTSKNQVALHMNSVTPEDTAVYYCARAGIVVVPGPETFYYYDHGLDVWGQGTTVTVSS VL: DIQMTQSPSSLSASVGDRVTITCRASQSIRSYLNWYQQKPGKAPELLIHAASSLQSGVPSRFSGSGSGTDFTLTISSLQPEDFASYYCQQSYSAPPITFGQGTRLEIK")
"+++"
>>> test_value("H1H11164N: human-Fc anti-STEAP2 antibody, HCVR/LCVR SEQ ID NOs 282/290 (antibody, V domains shown, human Fc) VH: QVQLQQSGPGLVKPSQTLSLTCVISGDSVSTNSAAWNWIRQSPSRGLEWLGRTYYRSKWYNDYAVSVRSRITINPVTSKNQVALHLNSVTPEDTAVYYCARAGIVVVPGPETYYYYYHGLDVWGQGTTVTVSS VL: DIQMTQSPSSLSASVGDRVTITCRASQNIRSYLNWYQQKPGKAPKLLIHVASSLQSGVPSRFSGSGSGTDFTLTISSLQPEDFATYYCQQSYSTPPITFGHGTRLEIK")
"+++"
>>> test_value("H1H7814N: human-Fc anti-STEAP2 antibody, HCVR/LCVR SEQ ID NOs 218/226 (antibody, V domains shown, human Fc) VH: QVQLVESGGGVVQPGRSLRLSCVASGFTISSYGMNWVRQAPGKGLEWVAVISYDGGNKYSVDSVKGRFTISRDNSKNTLYLQMNSLRAEDSAVYYCARGRYFDLWGRGTLVTVSS VL: DIQMTQSPSTLSASVGDRVTITCRASQSISSWLAWYQQKPGRAPNLLISKASSLKSGVPSRFSGSGSGTEFTLTVSSLQPDDFATYYCQQYYSYSYTFGQGTKLEIK")
"+"
>>> test_value("H2M11162N: anti-STEAP2 antibody, mouse IgG2 Fc, HCVR/LCVR SEQ ID NOs 250/258 (antibody, V domains shown, mouse IgG2 Fc) VH: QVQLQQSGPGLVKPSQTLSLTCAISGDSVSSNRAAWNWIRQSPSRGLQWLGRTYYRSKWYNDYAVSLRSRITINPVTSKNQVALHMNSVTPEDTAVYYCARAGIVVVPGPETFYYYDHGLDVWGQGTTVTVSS VL: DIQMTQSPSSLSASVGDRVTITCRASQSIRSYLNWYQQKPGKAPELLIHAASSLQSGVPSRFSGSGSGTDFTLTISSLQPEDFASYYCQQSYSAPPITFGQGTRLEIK")
"+++"

Now for the molecule whose Internalization (37° C., 1 h) Qualitative Score we want.
Look up Internalization (37° C., 1 h) Qualitative Score: H1H11880P: anti-STEAP2 antibody, HCVR/LCVR SEQ ID NOs 34/42 (antibody, V domains shown) VH: EVQLVESGGGLVQPGGSLRLSCAASGFTFSTYAMHWVRQAPGKGLQHVSTISTNGVNTYYADSVKGRFTISRDNSKSTLYLQMGSLRAEDMAVYYCARDKDFWSGYFDYWGQGTLVTVSS VL: EIVMTQSPGTLSVSPGERATLSCRASQSVSSNLAWYHQKPGQAPRLLIYGASTRATGFPARFSGSGSGTEFTLTISSLQSEDFAAYYCQQYNNWPITFGQGTRLEIK
+
